Experiment Description: PSAC antagonists in infected red cells, primary screen, cell-based, P. falciparum Indochina, OD700, 1 h (AID 1154)
Test Settings: P. falciparum Indochina infected RBC osmotic lysis, called active from +8 up or from −8 down
Active and inactive are the calls of the source.
Hello, when you answer, please use one of the following outcomes: 1 (yes) (active), 0 (no) (inactive)

Fill in: this test's call for `COc1ccc([Si](C)(C)[C@H]2[C@H](CCO)O[C@@]3(C(=O)N(Cc4ccc(N5CCOC5=O)cc4)c4ccccc43)[C@@H]2C)cc1` is ___
1 (yes)

Fill in: this test's call for `CC(C)C(=C=CC[C@@H](O)c1ccc(OCCO)cc1)CCO` is ___
0 (no)

Fill in: this test's call for `CC(=O)NCCCC[C@@H]1NC(=O)[C@H]2C[C@@H](C(=O)NCCCCCC[N+](C)(C)C)[C@@H](c3ccc(O)cc3)N2C1=O` is ___
0 (no)
